Source listed as paper PMC6268373.

assay: Effect of pH on aqueous solubility; conditions: water, pH adjusted with NaOH or HCl, 21 °C, pH 9, aqueous buffer, thermodynamic from solid
Give solubility at 30 min for every item shown.
Reply with just the number (in µg/mL).

Report solubility at 30 min for "NCCCCCCCCC(O)(P(=O)(O)O)P(=O)(O)O"
1190

Report solubility at 30 min for "NCCCCCCCCCCCC(O)(P(=O)(O)O)P(=O)(O)O"
250

Report solubility at 30 min for "NCCCCCCCCCCC(O)(P(=O)(O)O)P(=O)(O)O"
290

====

assay: Effect of temperature on aqueous solubility; conditions: 4 °C, water, thermodynamic from solid
Recorded Endpoint: solubility at 24 h (µg/mL)
Reply with just the number (in µg/mL).

Report solubility at 24 h for NCCCCCC(O)(P(=O)(O)O)P(=O)(O)O [Compound 4, reference compound]
4470
